Cited source for all entries: patent US9815835B2

Examples of molecules with documented IC50 follow.
Tested Target: cap-dependent endonuclease (RNP fraction containing PB1•PB2•PA complex) (Influenza A virus, UniProt P15659)
Experimental Details: biochemical
Details: RNP from A/WSN/33 virus, capped Cy3/BHQ2 30mer RNA substrate, 60 minutes at room temperature; read-out: CEN IC50
Measured Property: IC50 (nM)

* COCC(COC)N1CN(C2c3ccccc3CCc3ccccc32)n2ccc(=O)c(O)c2C1=O | 82
* COCCN1C(=O)c2c(O)c(=O)ccn2C(C(c2ccccc2)c2ccccc2)N1C (stereo not shown) | 277
* CCN1C[C@H](C(c2ccccc2)c2ccccc2)n2cc(C(=O)O)c(=O)c(O)c2C1=O | 43
* CC(C)N1CN(C2c3ccccc3CCc3c(CO)cccc32)n2ccc(=O)c(O)c2C1=O (stereo not shown) | 153
* CC(CN1CCSCC1)N1CN(C2c3ccccc3CCc3ccccc32)n2ccc(=O)c(O)c2C1=O (stereo not shown) | 151
* CN(CCN1CN(C(c2ccccc2)c2ccccc2)n2ccc(=O)c(O)c2C1=O)S(C)(=O)=O | 189
* CN1C(C(c2ccccc2)c2ccccc2)n2ccc(=O)c(O)c2C(=O)N1CCOc1ccc(F)cc1 (stereo not shown) | 215
* O=C1c2c(O)c(=O)ccn2N(C2c3ccccc3CSc3ccccc32)CN1CCF (stereo not shown) | 18
* COCC(C)N1CN(C2c3ccccc3CSc3ccccc32)n2ccc(=O)c(O)c2C1=O (stereo not shown) | 58
* CC(C)N1CN(C2c3cccc(F)c3CCc3c(F)cccc32)n2ccc(=O)c(O)c2C1=O | 26
* CC(C)N1CN(C2c3ccccc3CCc3cc(Cl)ccc32)n2ccc(=O)c(O)c2C1=O (stereo not shown) | 28
* CC(C)N1CN(C2c3ccccc3OCc3c(F)cccc32)n2ccc(=O)c(O)c2C1=O (stereo not shown) | 35
* O=C1c2c(O)c(=O)ccn2N(C2c3ccccc3CCc3ccccc32)CN1CCOC(F)(F)F | 39
* COCCN1CN(C2c3ccccc3CSc3ccc(Cl)cc32)n2ccc(=O)c(O)c2C1=O (stereo not shown) | 21
* COCCN1C[C@H](C(c2ccccc2)c2ccccc2)n2cc(OC)c(=O)c(O)c2C1=O | 110
* O=C1c2c(O)c(=O)ccn2N(C2c3ccccc3CSc3ccccc32)CN1C(CF)CF (stereo not shown) | 113

###

Tested Target: cap-dependent endonuclease (RNP fraction containing PB1•PB2•PA complex) (Influenza A virus)
Experimental Details: biochemical
Details: RNP from A/WSN/33 virus, capped Cy3/BHQ2 30mer RNA substrate, 60 minutes at room temperature; read-out: CEN IC50
pIC50: −log10 of the molar value.
Examples of compounds with documented pIC50 follow.
Measured Property: pIC50

* O=C1c2c(O)c(=O)ccn2N(C2c3ccccc3CSc3ccccc32)CN1CC(O)CO (centres unmarked) [Example 365] | 7.39
* CC(C)N1C(=O)c2c(O)c(=O)ccn2N(C2c3ccccc3CCc3ccccc32)C1CO (centres unmarked) [Example 547] | 7.49
* CCN1C(=O)c2c(O)c(=O)ccn2C(C(c2ccccc2)C2CCCCC2)N1CC (centres unmarked) [Example 493] | 6.95
* CC(C)C1N(CCO)C(=O)c2c(O)c(=O)ccn2N1C1c2ccccc2CCc2ccccc21 (centres unmarked) [Example 553] | 7.55
* C[C@@H](N1CN([C@H]2c3ccccc3CSc3cc(Cl)ccc32)n2ccc(=O)c(O)c2C1=O)C(F)(F)F [Example 449] | 7.21
* CN1C[C@H](C2c3ccccc3CSc3ccccc32)n2ccc(=O)c(O)c2C1=O (some centres unmarked) [Example 562] | 7.66
* O=C1c2c(O)c(=O)ccn2N(C2c3ccccc3CSc3ccccc32)CN1C(CO)CO (centres unmarked) [Example 366] | 7.05
* C[C@@H](N1CN([C@H]2c3ccc(Br)cc3CSc3ccccc32)n2ccc(=O)c(O)c2C1=O)C(F)(F)F [Example 433] | 7.85
